Collected growth at 10 µM values appear next to each entry.
test system: NCI-H226; assay: Growth inhibition of human NCI-H226 cells assessed as growth percentage at 10 uM incubated for 48 hrs by sulforhodamine B assay relative to control; type: functional; settings: NCI-H226, 48 h, read-out: Activity
assayMetric: growth at 10 µM (%)

CC1=C(C(=O)OCc2ccccc2)C(c2ccc3c(c2)OCO3)NC(=O)N1 (racemic) = 95.9
CC(=O)C1=C(C)NC(=S)NC1c1ccc2c(c1)OCO2 (racemic) = 102
COCCOC(=O)C1=C(C)NC(=O)NC1c1ccc2c(c1)OCO2 (racemic) = 98
CC1=C(C(=O)c2ccccc2)C(c2ccc3c(c2)OCO3)NC(=S)N1 (racemic) = 66.5
CC1(C)CC(=O)C2=C(C1)NC(=O)NC2c1ccc2c(c1)OCO2 (racemic) = 109
CC(=O)N1C(=S)NC(C)=C(C(=O)OCC(C)C)C1c1ccc2c(c1)OCO2 (racemic) = 94.6
O=C1NC2=C(C(=O)c3ccccc32)C(c2ccc3c(c2)OCO3)N1 (racemic) = 102
CC1=C(C(=O)OCC(C)C)C(c2ccc3c(c2)OCO3)NC(=S)N1 (racemic) = 97.1
CC1=C(C(=O)OCc2ccccc2)C(c2ccc3c(c2)OCO3)NC(=S)N1 (racemic) = 95.8
CC1=C(C(=O)OC(C)C)C(c2ccc3c(c2)OCO3)NC(=S)N1 (racemic) = 84.1
CC1=C(C(=O)OCC(C)C)C(c2ccc3c(c2)OCO3)NC(=O)N1 (racemic) = 93.1
CC(=O)N1C(=S)NC(C)=C(C(=O)OC(C)C)C1c1ccc2c(c1)OCO2 (racemic) = 94.8
CC1=C(C(=O)c2ccccc2)C(c2ccc3c(c2)OCO3)NC(=O)N1 (racemic) = 97.4
COCCOC(=O)C1=C(C)NC(=S)N(C(C)=O)C1c1ccc2c(c1)OCO2 (racemic) = 96.6
CC(=O)C1=C(C)NC(=O)NC1c1ccc2c(c1)OCO2 (racemic) = 99.6
CC(=O)N1C(=S)NC(C)=C(C(=O)OCc2ccccc2)C1c1ccc2c(c1)OCO2 (racemic) = 96.3
COCCOC(=O)C1=C(C)NC(=S)NC1c1ccc2c(c1)OCO2 (racemic) = 90.2
CC1=C(C(=O)OC(C)C)C(c2ccc3c(c2)OCO3)NC(=O)N1 (racemic) = 101
O=C1C2=C(NC(=S)NC2c2ccc3c(c2)OCO3)c2ccccc21 (racemic) = 92.6
CC(=O)C1=C(C)Nc2nc3ccccc3n2C1c1ccc2c(c1)OCO2 (racemic) = 103

---

test system: MDA-MB-231; assay: Growth inhibition of human MDA-MB-231 cells assessed as growth percentage at 10 uM incubated for 48 hrs by sulforhodamine B assay relative to control; format: functional; details: MDA-MB-231, 48 h, read-out: Activity
assayMetric: growth at 10 µM (%)

CC(=O)C1=C(C)NC(=O)NC1c1ccc2c(c1)OCO2 (racemic) = 102
CC1=C(C(=O)OCc2ccccc2)C(c2ccc3c(c2)OCO3)NC(=O)N1 (racemic) = 104
CC1=C(C(=O)OCC(C)C)C(c2ccc3c(c2)OCO3)NC(=O)N1 (racemic) = 106
CC1=C(C(=O)c2ccccc2)C(c2ccc3c(c2)OCO3)NC(=O)N1 (racemic) = 102
CC(=O)C1=C(C)Nc2nc3ccccc3n2C1c1ccc2c(c1)OCO2 (racemic) = 93.5
CC1(C)CC(=O)C2=C(C1)NC(=O)NC2c1ccc2c(c1)OCO2 (racemic) = 111
O=C1NC2=C(C(=O)c3ccccc32)C(c2ccc3c(c2)OCO3)N1 (racemic) = 109
CC1=C(C(=O)OCc2ccccc2)C(c2ccc3c(c2)OCO3)NC(=S)N1 (racemic) = 105
CC1=C(C(=O)c2ccccc2)C(c2ccc3c(c2)OCO3)NC(=S)N1 (racemic) = 79.1
CC1=C(C(=O)OCC(C)C)C(c2ccc3c(c2)OCO3)NC(=S)N1 (racemic) = 118
CC1=C(C(=O)OC(C)C)C(c2ccc3c(c2)OCO3)NC(=O)N1 (racemic) = 104
CC(=O)N1C(=S)NC(C)=C(C(=O)OCc2ccccc2)C1c1ccc2c(c1)OCO2 (racemic) = 84.5
